Target: UniProtKB P9WMR3
Sequence (P9WMR3 400-815 limits assumed): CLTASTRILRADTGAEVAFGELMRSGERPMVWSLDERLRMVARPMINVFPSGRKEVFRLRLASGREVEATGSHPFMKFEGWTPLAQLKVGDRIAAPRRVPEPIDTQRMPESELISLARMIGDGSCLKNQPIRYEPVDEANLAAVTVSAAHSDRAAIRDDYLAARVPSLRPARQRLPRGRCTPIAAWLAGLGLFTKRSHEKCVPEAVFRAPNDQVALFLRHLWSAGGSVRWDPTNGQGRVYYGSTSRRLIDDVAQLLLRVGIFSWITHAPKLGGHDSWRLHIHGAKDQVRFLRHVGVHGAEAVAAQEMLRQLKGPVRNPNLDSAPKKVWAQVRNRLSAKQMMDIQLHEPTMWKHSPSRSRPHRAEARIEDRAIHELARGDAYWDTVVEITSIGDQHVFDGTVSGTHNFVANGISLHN
Flag rule - IC50 less than 9 µM flags y; the remaining entries get n.

Example entries begin here.
> print(dat)
                                   compound  category.label
1  N#CC1(C#N)C(c2cccc(I)c2)C(C(N)=O)N2C=Cc3ccccc3C21 (stereo not shown) [Compound 17]               n
2          N#CCSc1ccc(C#N)cc1 [Compound 24]               n
3  CS(=O)(=O)c1cc(C(F)(F)F)cc(S(C)(=O)=O)c1S(C)(=O)=O [Compound 3]               n
4  O=S(=O)(c1ccc(Cl)c(Cl)c1)c1snnc1-c1ccccc1 [Compound 7]               y
5  CC1(C)CC(=O)c2c(S(C)(=O)=O)sc(C(=O)OCc3ccccc3)c2C1 [Compound 30]               y

Does the reported IC50 of the following compound sit strictly below 9 µM? C=CCn1c(Sc2ncnc3c2sc(=S)n3CC=C)nnc1-c1ccccc1 [Compound 27]
y

Does the reported IC50 of the following compound sit strictly below 9 µM? O=C(Oc1ccc(Cl)cc1)c1snnc1-c1ccccc1 [Compound 23]
y

Does the reported IC50 of the following compound sit strictly below 9 µM? CCOC(=O)c1cc(C#N)c(Sc2nnc(SCC3CC3)s2)nc1C(F)(F)F [Compound 71]
y

Does the reported IC50 of the following compound sit strictly below 9 µM? Cc1cc(Oc2c([N+](=O)[O-])cc(C(F)(F)F)cc2[N+](=O)[O-])ccc1Cl [Compound 64]
y

Does the reported IC50 of the following compound sit strictly below 9 µM? N#CC(N)=C(C#N)NCc1ccccc1Sc1ccc(Cl)cc1 [Compound 29]
y

Does the reported IC50 of the following compound sit strictly below 9 µM? COc1cccc(N(NC(=O)C(O)(c2cccc(C(F)(F)F)c2)c2cccc(C(F)(F)F)c2)C(=O)CCl)c1 [Compound 51]
y

---

target: M. tuberculosis DnaB intein (Mycobacterium tuberculosis, UniProt P9WMR3)
MEASURE_NAME: IC50 (µM)
Reply with just the number (in µM).

Here's what some known entries look like.
> print(dat)
                                    compound  assay.result
 1     O=S(=O)(c1ccc(Br)cc1)c1snnc1-c1ccccc1            13
 2  O=C(c1nnsc1[S+]([O-])c1ccc(Cl)cc1)N1CCCCC1 (centres unmarked)             8
 3  O=C(Nc1ccccc1)c1nnsc1S(=O)(=O)c1ccc(Cl)cc1             7
 4         Oc1ccc(Br)cc1CNc1cccc(C(F)(F)F)c1             5
 5  O=C(CCl)N1CCN2C(=O)c3ccccc3C12c1ccc(Cl)cc1 (centres unmarked)             8
 6  CCCN(CCC)S(=O)(=O)c1ccc(C(=O)SCC(=O)OCC)cc1            13
 7  Oc1cc2c(cc1C(c1ccc(Cl)c(Cl)c1)N1CCCC1)OCO2 (centres unmarked)            30
 8         N#CC1(C#N)C(c2ccccc2Cl)C1(C#N)C#N            15
 9  O=[N+]([O-])c1cc(C(F)(F)F)cc([N+](=O)[O-])c1Sc1nc2ccccc2[nH]1             7
10  CCOC(=O)CSc1nc2c(c(-c3cccs3)c1C#N)CN(C)CC2            10

Give IC50 (M. tuberculosis DnaB intein (Mycobacterium tuberculosis, UniProt P9WMR3)) of the following compound: O=C(Sc1ccccc1)c1ccc2ncsc2c1
9

Give IC50 (M. tuberculosis DnaB intein (Mycobacterium tuberculosis, UniProt P9WMR3)) of the following compound: Oc1cc2c(cc1C(c1ccc(C(F)(F)F)cc1)N1CCOCC1)OCO2 (centres unmarked)
37

Give IC50 (M. tuberculosis DnaB intein (Mycobacterium tuberculosis, UniProt P9WMR3)) of the following compound: COc1ccc(NC(=O)C(Cl)=C(Cl)[S+]([O-])Cc2ccccc2)cn1 (centres unmarked)
7

Provenance of the data: patent US7553832B2
